biological target: T1, DR4G108 (HLA DQB6:02, peptide CLIP) (human); experiment: MSD ECL; antigen coated; protocol of Example 3;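 further: antibody binding to plate-coated soluble HLA class II antigens carrying peptides fused at the beta-chain N-terminus, detected with a SulfoTag anti-human Kappa secondary antibody for 1 hour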
T1 construct: extracellular domain
Listed below: ECL signal values for each entry.
Value expressed in ECL; do not type the unit.

For orientation, consider the following solved cases.
DR4B127 (antibody, human IgG2, kappa, V domains shown, also called VH DR4H7 / VL PH9L3) VH: QVQLVQSGAEVKKPGSSVKVSCKASGGTFKSYYIHWVRQAPGQGLEWMGGIRPISGNAEYAQKFQGRVTITADESTSTAYMELSSLRSEDTAVYYCARDASYYRNYGFDYWGQGTLVTVSS VL: EIVLTQSPATLSLSPGERATLSCRASQSVSSYLAWYQQKPGQAPRLLIYDASNRATGIPARFSGSGSGTDFTLTISSLEPEDFAVYYCQQRSNWPLTFGQGTKVEIKR : 248
DR4B4 (antibody, V domains shown, also called Lym-1 re-engineered as IgG2sigma) VH: QVQLKESGPGLVAPSQSLSITCTISGFSLTSYGVHWVRQPPGKGLEWLVVIWSDGSTTYNSALKSRLSISKDNSKSQVFLKMNSLQTDDTAIYYCASHYGSTLAFASWGHGTLVTVSA VL: DIQMTQSPASLSASVGETVTIICRASVNIYSYLAWYQQKQGKSPQLLVYNAKILAEGVPSRFSGSGSGTQFSLKINSLQPEDFGSYYCQHHYGPFTFGSGTKLEIK : 53
DR4B6 (antibody, V domains shown, also called L243 re-engineered as IgG2sigma) VH: QIQLVQSGPELKKPGETVKISCKASGFTFTNYGMNWVKQAPGKGLKWMGWINTYTREPTYADDFKGRFAFSLETSASTAYLQINNLKNEDTAKYFCARDITAVVPTGFDYWGQGTTLTVSS VL: DIQMTQSPASLSVSVGETVTITCRASENIYSNLAWYRQKQGKSPQLLVFAASNLADGVPSRFSGSGSGTQYSLKINSLQSEDFGDYYCQHFWTTPWAFGGGTNLEIK : 76
DR4B5 (antibody, V domains shown, also called apolizumab (1D10) re-engineered as IgG2sigma) VH: QVQLQESGPGLVKPSETLSLTCTVSGFSLTNYGVHWVRQSPGKGLEWIGVKWSGGSTEYNAAFISRLTISKDTSKNQVSLKLNSLTAADTAVYYCARNDRYAMDYWGQGTLVTVSS VL: DIQMTQSPSSLSASVGDRVTITCRASENIYSYLAWYQQKPGKAPKLLVSNAKTLAEGVPSRFSGSGSGKQFTLTISSLQPEDFATYYCQHHYGNSYPFGQGTKLEIK : 76

Then this binder:
# return recorded ECL signal for input DR4B98 (antibody, human IgG2, kappa, V domains shown, also called VH DR4H50 / VL PH9L3) VH: QVQLVQSGAEVKKPGSSVKVSCKASGGTFKSYYIHWVRQAPGQGLEWMGGIAPIYGTAYYAQKFQGRVTITADESTSTAYMELSSLRSEDTAVYYCARDASWARAYGFDYWGQGTLVTVSS VL: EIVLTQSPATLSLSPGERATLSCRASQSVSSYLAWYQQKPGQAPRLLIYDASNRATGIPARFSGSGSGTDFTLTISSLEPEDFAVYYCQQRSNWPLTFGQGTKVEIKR
197
